Entries and their measured Ki follow.
target: Mcl-1 (Homo sapiens (Human)); experiment: Fluorescence polarization anisotropy (FPA) competition assay, FITC-Bak or FITC-Bim BH3 peptide; format: binding; settings: read-out: Ki for Inhibition of Mcl-1 by FPA assay
Sequence (Q07820 172-327): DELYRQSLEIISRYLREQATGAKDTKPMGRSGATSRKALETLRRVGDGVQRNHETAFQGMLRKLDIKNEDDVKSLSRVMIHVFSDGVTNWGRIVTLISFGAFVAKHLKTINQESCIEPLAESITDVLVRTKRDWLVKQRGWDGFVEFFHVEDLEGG
endpoint: Ki

> print(dat)
                                    molecule     val
 1  Cc1cc(OCCCc2c3n(c4c(-c5c(C)nn(C)c5C)c(Cl)ccc24)[C@H](C)CN(c2nccc4cc(C(=O)O)ccc24)C3=O)cc(C)c1Cl  < 1 nM
 2  Cc1cc(OCCCc2c3n(c4c(-c5c(C)nn(C)c5C)c(Cl)ccc24)CCCN(c2cc(C(=O)O)c4cnn(C(C)C)c4c2)C3=O)cc(C)c1Cl  < 1 nM
 3  COCCn1c(C(=O)O)cc2cc(C)cc(N3C[C@@H](C)n4c(c(CCCOc5cc(C)c(Cl)c(C)c5)c5ccc(Cl)c(-c6c(C)nn(C)c6C)c54)C3=O)c21  < 1 nM
 4  Cc1cc(OCCCc2c3n(c4c(-c5c(C)nn(C)c5C)c(Cl)ccc24)CCCN(c2cc(C(=O)O)c4ccn(CCN5CCOCC5)c4c2)C3=O)cc(C)c1Cl  < 1 nM
 5  Cc1cc(OCCCc2c3n(c4c(-c5c(C)nn(C)c5C)c(Cl)ccc24)[C@H](C)CN(c2cccc4c2cc(C(=O)O)n4C)C3=O)cc(C)c1Cl  < 1 nM
 6  COCCn1ncc2c(C(=O)O)cc(N3CCCn4c(c(CCCOc5cc(C)c(Cl)c(C)c5)c5ccc(Cl)c(-c6c(C)nn(C)c6C)c54)C3=O)cc21  < 1 nM
 7  Cc1cc(OCCCc2c3n(c4c(-c5c(C)nn(C)c5C)c(Cl)ccc24)[C@H](C)CN(c2ccc4oc(C(=O)O)cc4c2)C3=O)cc(C)c1Cl  < 1 nM
 8  Cc1cc(OCCCc2c3n(c4c(-c5c(C)nn(C)c5C)c(Cl)ccc24)CCCN(c2cccc4c(C(=O)O)n(C)nc24)C3=O)cc(C)c1Cl  < 1 nM
 9  Cc1cc(OCCCc2c3n(c4c(-c5c(C)nn(C)c5C)c(Cl)ccc24)[C@H](C)CN(c2cn(CCC4CCOCC4)c4ccc(C(=O)O)cc24)C3=O)cc(C)c1Cl  < 1 nM
10  Cc1cc(OCCCc2c3n(c4c(-c5c(C)ncnc5C)c(Cl)ccc24)CCCN(c2cc(C(=O)O)c4cnn(C)c4c2)C3=O)cc(C)c1Cl  < 1 nM
11  Cc1cc(OCCCc2c3n(c4c(-c5c(C)nn(C)c5C)c(Cl)ccc24)[C@H](C)CN(c2ccc(C(=O)O)c4c2ccn4C)C3=O)cc(C)c1Cl  < 1 nM
